Please respond with reported growth for every item in the list.
# System: HCT-15 colon
# assay_comment: NCI-60 one-dose screen, 48 h (100 = growth as untreated, 0 = no growth, -100 = all killed)
# condition_context: 10 µM unless noted
This is part of a sample that, as a whole, favours compounds with a hit. Of some 83,000 tested, about 20% had one in any assay.
Answers are plain numbers, in %.

Study these solved cases before continuing.
molecule	growth / %
CC1(C)N=C(N)N=C(N)N1c1ccc(OCC(=O)Nc2ccccc2)c(Cl)c1	96.7
COc1cc(NC(=O)c2cc(OC)c3ccn(C)c3c2)cc2c1C[C@]1(C)CC[C@@H](O)C(C)(C)[C@H]1O2	58.1
Nc1ncnc2c1ncn2C1OC(COC(c2ccccc2)(c2ccccc2)c2ccccc2)C(O)C1O (stereo not given)	98.2
COc1ccc2c(c1)OC(N(C(C)=O)C(C)=O)=C(C#N)C2c1ccc(F)cc1 (stereo not given)	24.9
CN1CCN(Cn2nc(-c3cc(F)c(Cl)cc3Cl)n(/N=C/c3ccc(N(C)C)cc3)c2=S)CC1	100

Quick request: growth for each listed item, please.
1. COc1cc(NS(=O)(=O)c2ccc(N)cc2)ncn1
2. CCN1CCN(Cc2ccc(NC(=O)Nc3cccc(-n4ccc5c(NC(=O)c6ccccc6)nccc54)c3)cc2C(F)(F)F)CC1
3. CCOc1ccccc1C(=O)N1CCN(c2cc(Cl)cc(Cl)c2)CC1
4. COc1ccc2c(c1)/C(=C/c1c(-c3cc(OC)c(OC)c(OC)c3Br)nc3sccn13)C(=O)N2
5. CCCCCCCCCCCCCCCCCCNCc1ccc(Cl)cc1

result:
1. 108
2. 77
3. 11.2
4. 109
5. -87.1

----------
# System: SK-OV-3 ovarian
# assay_comment: NCI-60 one-dose screen, 48 h
# condition_context: 10 µM unless noted
Compounds without any hit were thinned out: in the full panel of roughly 83,000, 20% have a hit. The source made the active and inactive calls. How the source made its calls: active means growth percent below 10; inactive means the rest.
# valid calls are active, inactive; nothing else

compound	label
C=C1C(=O)O[C@H]2[C@H]1CC/C(COC(=O)c1ccc(Br)cc1)=C\CC[C@@]1(C)O[C@@H]21	inactive
Cc1ccc(NC(=O)CN2CCOCC2)cc1Cl	inactive
O=C(Nc1ccc(F)cc1)Nc1ccc(Br)c(C(F)(F)F)c1	active
Cc1cn(-c2nc3c(c(NCc4ccccc4)n2)COCC3)c2cccc(C(N)=O)c12	inactive
Clc1ccc(OCc2nc(-c3ccccc3)n[nH]2)c(Cl)c1	inactive

query: What was the test verdict on Cn1cnc([N+](=O)[O-])c1N1c2ccncc2Sc2ccncc21 ?
result: inactive

query: Recorded test call requested for CC(/C=C/C=C(\C)[C@H](O)[C@H](C)C(=O)O[C@H]1C[C@H](C)C=C2C=C[C@@]3(C)O[C@@H](O)CC(=O)[C@]3(C)[C@H]21)=C\C=C\C(=O)O
result: active

query: # fetch the recorded call for O=C(Nc1ccc(-n2ccc3c(NC(=O)c4ccccc4)ncnc32)cc1)Nc1ccc(Cl)c(C(F)(F)F)c1 here
result: inactive

query: Field: outcome | Entry: CC1=C2C(=C[C@@](C)(CO)[C@@H]2OC(=O)N(C)CCN(C)C(=O)OC(C)(C)C)C(=O)[C@](C)(O)C12CC2
result: inactive

query: What was the test verdict on CCN(CC)CCNC(=O)c1c(C)[nH]c(/C=C2\C(=O)Nc3cc(NC(=O)NC(=O)c4ccc(OC)cc4F)ccc32)c1C ?
result: inactive

query: // param item: COc1cc2ncn3c(=O)c4c5c(sc4nc3c2cc1OC)CCCCC5 ; yields the recorded call
result: inactive

query: Recorded test call requested for C=C(C)[C@@H]1C/C=C(\COC(=O)[C@H](OC(C)=O)C(NC(=O)c2ccccc2)c2ccccc2)CC[C@H]2O[C@]2(C)CC/C=C(\C)CC1 (stereo partly drawn)
result: inactive

query: // param item: CC(C)(C)OC(=O)N1CCN(CCn2cc(C(F)(F)F)c3c(Cl)ncnc32)CC1 ; yields the recorded call
result: inactive

query: State the result this test recorded for CCOC(=O)c1noc2c1CCc1c-2cn(Cc2ccc(OC)cc2)c1-c1cc(OC)c(OC)c(OC)c1 .
result: inactive

query: Call for entry CN(C)c1ncc(C#Cc2c(F)cccc2F)c2ccccc12 :
result: inactive

query: Lab log entry: O=c1c(-c2ccc3c(c2)OCO3)coc2c(CO)c(O)ccc12 — outcome as called in the assay?
result: active

query: Kindly provide the recorded test outcome for the following compound: C[C@H]1C=C(C[C@@H](O)CC#CC#CCCCCC[C@@H](O)[C@H]2CCC(=O)O2)C(=O)O1
result: inactive

query: Hi, do you know how NC(=O)C1=C[C@H]2[C@H]3C=C[C@@]2(O)C(=O)O[C@@H]3O1 came out in this test?
result: inactive

----------
# Test system: SN12C renal
# assay_comment: NCI-60 one-dose screen, 48 h (100 = growth as untreated, 0 = no growth, -100 = all killed)
# condition_context: 10 µM unless noted
About 83,000 compounds went through this panel and 20% of them were active in at least one assay; those are over-represented in the sample as a whole.
measure_name: growth (%)
Answers are plain numbers, in %.

Recorded growth, per entry:
compound	measure_name	result_unit	observed_result
O=C1c2ccccc2OC=C(c2ccccc2)N1CCCCNc1ccc(F)cc1	growth	%	77.4
CCn1c(SCC(=O)c2ccc(Br)cc2)nnc1-c1cc2c([nH]c3ccccc32)c(-c2cccc(O)c2)n1	growth	%	96.5

Hi, could you look up growth for each item in my list?
1. CC[C@@]1(O)C(=O)OCc2c1cc1n(c2=O)Cc2c-1nc1ccccc1c2/C=N/OC(C)(C)C
2. CCCCCCCCN(CCCCCCCC)CC(O)c1cc(-c2ccccc2)nc2ccc(OC)cc12 (centres undefined)
3. Cc1nc(N)nc(SCc2ccccc2)c1Br
4. O=C(NCCNc1nccc(-c2c(-c3cccc(O)c3)nc3sccn23)n1)c1ccccc1O

result:
1: 5.56; 2: 39.9; 3: 91.6; 4: 48

For the 3 compounds below, give their growth values.
1. COc1cc2ncnc(Oc3ccc(NC(=O)Nc4ccc(C5(C#N)CCCC5)cc4)c4ccccc34)c2cc1OC
2. Nc1nc(Cl)cc(NCCCCNc2cc(Cl)nc(N)n2)n1
3. COc1ccc(C[C@H](N)C(=O)N[C@@H]2[C@@H](CO)OC(n3cnc4c(N(C)C)ncnc43)[C@@H]2O)cc1 (some centres undefined)

result:
21.3
126
-13.3

----------
# Tested on: PC-3 prostate
# assay_comment: NCI-60 one-dose screen, 48 h (100 = growth as untreated, 0 = no growth, -100 = all killed)
# condition_context: 10 µM unless noted
The panel holds about 83,000 compounds, 20% with a hit somewhere; the sample as a whole holds those more often.
measure_name: growth (%)
Answers are plain numbers, in %.

Worked examples, 3 molecules total:
molecule	measure_name	observed_result
c1cncc(-c2nc3ccccc3[nH]2)c1	growth	89.7
CC[C@@]1(O)C(=O)OCc2c1cc1n(c2=O)Cc2c-1nc1ccccc1c2/C=N/OC(C)(C)C	growth	23.6
CCOc1ccc(NC2=C(Cl)C(=O)c3ccccc3C2=O)cc1	growth	72.1

Give growth for each listed item.
1. Cc1cc(SCc2ccc(Cl)cc2Cl)nc(SCc2ccc(Cl)cc2Cl)n1
2. Nc1ccc(S(=O)(=O)Nc2ccnn2-c2ccccc2)cc1
3. O=C(Nc1cccc([N+](=O)[O-])c1)c1ccc2ccccc2c1O
4. CN1CCN(CC(O)COc2c(Br)c(Br)c(Br)c3c2OC(C)(C)C3)CC1 (stereo not given)
5. COc1ccc(C2CC(c3cc(Cl)c(C)cc3OC)=NN2c2ccc(S(N)(=O)=O)cc2)cc1OC (stereo not given)
6. COc1ccc(C[C@H](N)C(=O)N[C@@H]2[C@@H](CO)OC(n3cnc4c(N(C)C)ncnc43)[C@@H]2O)cc1 (stereo not given in full)

result:
[108, 90.1, 51.9, 53, 52.3, -6.6]

----------
# System: A549/ATCC NSCLC
# assay_comment: NCI-60 one-dose screen, 48 h
# condition_context: 10 µM unless noted
Compounds without any hit were thinned out: in the full panel of roughly 83,000, 20% have a hit. Activity calls are given as the source filed them. How the source made its calls: active means growth percent below 10; inactive means the rest.
The reply should name one outcome from 1 (active), -1 (inactive)

smiles_code	experimental_target	label
Nc1ccc(S(=O)(=O)Nc2ccnn2-c2ccccc2)cc1	A549/ATCC NSCLC	-1

query: Recorded call for CCCCCCCCCCCCCCCCCCNCc1ccc(Cl)cc1 ?
result: 1

query: Outcome? CCc1cccc(C)c1NC(=O)c1sc2nc3c(cc2c1N)CCCCC3
result: -1

query: Could you check what this test reported for COC1=C(OC)C(=O)C=CC1=O ?
result: -1

query: // return assay outcome for COc1cc(Nc2ncccc2C(=O)Nc2nc3ccc(F)cc3s2)cc(OC)c1OC
result: -1

----------
# System: SNB-75 CNS
# assay_comment: NCI-60 one-dose screen, 48 h (100 = growth as untreated, 0 = no growth, -100 = all killed)
# condition_context: 10 µM unless noted
The panel holds about 83,000 compounds, 20% with a hit somewhere; the sample as a whole holds those more often.
Kindly state growth for each of the entries shown.
One number for each entry, in %.

compound	growth (%)
O=C(O)c1cccc2oc(-c3ccccc3O)nc12	74.7
COc1ccc(Cn2cc(COc3ccc4c5ccnc(C)c5n(CCCc5ccccc5)c4c3)nn2)cc1	51
COc1ccc(CCNC=O)cc1OC	80.7
Cn1c(I)c(C#C[Si](C)(C)C)c(=O)[nH]c1=O	75.2
NCC(=O)NS(=O)(=O)OC[C@H]1O[C@@H](n2cnc3c(N)ncnc32)[C@H](O)[C@@H]1O	-6.72

List growth for every entry below, keeping the order given.
1. CCCC(=O)Oc1ccc(/C(=C(\C)c2ccc(OC)cc2)c2ccc(OCCN3CCCCC3)cc2)cc1
2. CC1(C)Cc2c(Br)c(Br)c(Br)c(OCC(O)CN3CCN(c4ccccn4)CC3)c2O1 (stereo unspecified)
3. Nc1nc(Cl)c2c(C(F)(F)F)cn(CC3CCNCC3)c2n1
4. Nc1c(C(=O)O)[nH]c(=O)[nH]c1=O

result:
1. 73
2. 187
3. 97.6
4. 98
